test system: Fusobacterium symbiosum; assay: standard agar-dilution test, anaerobic bacteria; type: cell-based; conditions: Fusobacterium, 24 h
PROPERTY: MIC

| MOLECULE | MIC |
| --- | --- |
| CC[C@]1(C)C[C@@H](OC(=O)CO[C@H]2O[C@H](COC(C)=O)[C@@H](OC(C)=O)[C@H](OC(C)=O)C2=NO)[C@]2(C)[C@H](C)CC[C@]3(CCC(=O)[C@H]32)[C@@H](C)[C@@H]1O [Compound 8] | > 128 µg/mL |
| C=C[C@]1(C)C[C@@H](OC(=O)CO[C@H]2O[C@H](COC(C)=O)[C@H](OC(C)=O)[C@H](OC(C)=O)C2=NO)[C@]2(C)[C@H](C)CC[C@]3(CCC(=O)[C@H]32)[C@@H](C)[C@@H]1O [Compound 9] | > 128 µg/mL |

Let us examine a further case.
Notebook entry, Fusobacterium symbiosum assay: MIC of C=C[C@]1(C)C[C@@H](OC(=O)CO[C@H]2O[C@H](COC(C)=O)[C@@H](OC(C)=O)[C@H](OC(C)=O)C2=NO)[C@]2(C)[C@H](C)CC[C@]3(CCC(=O)[C@H]32)[C@@H](C)[C@@H]1O [Compound 7] = ?
> 128 µg/mL

Taken from patent US4130709A.
